Biological target: pERK1/2 (Thr202/Tyr204), PANC-1 (KRAS G121D) (Homo sapiens, UniProt P01116, G12D)
Construct: pERK1/2 HTRF read-out
Sequence (P01116 1-188 isoform P01116-2 G12D): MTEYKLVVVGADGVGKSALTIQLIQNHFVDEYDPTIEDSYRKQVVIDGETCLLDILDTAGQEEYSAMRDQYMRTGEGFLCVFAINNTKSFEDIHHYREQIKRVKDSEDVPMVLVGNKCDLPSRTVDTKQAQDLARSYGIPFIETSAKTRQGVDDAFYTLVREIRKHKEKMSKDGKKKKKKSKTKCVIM
Test: Assay of intracellular pERK1/2 (Thr202/Tyr204) phosphorylation in PANC-1 cells (KRAS G12D)
Format: cell-based
Conditions: pERK1/2, 2 days, read-out: PANC-1 (KRAS G12D) IC50
measurement.name: log10 of IC50 (log10 of the value in nM)

1. Cc1c(C(F)(F)F)c(-c2cc3nc(OC[C@@]45CCCN4C[C@H](F)C5)nc4c3c(n2)OC[C@H](C)N4C(C)c2cccnc2N)c2c(C)n[nH]c2c1F (some centres unmarked) [Compound 383] :: -0.40
2. [2H]C([2H])(Oc1nc2c3c(nc(-c4cc(N)cc(C)c4C(F)(F)F)c(F)c3n1)OCCN2C(C)c1cccnc1N)[C@@H]1CCC([2H])([2H])N1C([2H])([2H])[2H] (single isomer, unassigned) [Compound 102] :: 1.58
3. Cc1c(F)c(N)cc(-c2nc3c4c(nc(OC[C@@]56CCCN5C[C@H](F)C6)nc4c2F)N([C@H](C)c2cc(F)cnc2N)[C@@H](C)CO3)c1C(F)(F)F [Compound 365] :: 0.00
4. Cc1cc2[nH]ncc2c(-c2nc3c4c(nc(OC[C@@]56CCCN5C[C@H](F)C6)nc4c2F)N(C(C)c2cc(Cl)cnc2N)[C@@H](C)CO3)c1C(F)(F)F (some centres unmarked) [Compound 334] :: -0.22
5. Cc1c(C(F)(F)F)c(-c2nc3c4c(nc(OCC5(CN(C)C)CC5)nc4c2F)N(C(C)c2cccnc2N)[C@@H](C)CO3)c2cn[nH]c2c1F (some centres unmarked) [Compound 396] :: 0.78
6. Cc1cc2[nH]nc(C)c2c(-c2nc3c4c(nc(OC[C@@]56CCCN5C[C@H](F)C6)nc4c2F)N(C(C)c2cccnc2N)[C@@H](C)CO3)c1C(F)(F)F (some centres unmarked) [Compound 378] :: -0.70
7. CC(c1cccnc1N)N1CCOc2nc(-c3cc(O)cc(Cl)c3C(F)(F)F)c(F)c3nc(OC[C@@]45CCCN4C[C@H](F)C5)nc1c23 (single isomer, unassigned) [Compound 58] :: 2.17
8. CC(c1cccnc1N)N1c2nc(OC[C@@]34CCCN3C[C@H](F)C4)nc3c(F)c(-c4cc(F)cc5c4C(F)(F)CC5)nc(c23)OC[C@@H]1C (some centres unmarked) [Compound 371] :: 1.76
9. CCc1c(F)ccc2cc(O)cc(-c3nc4c5c(nc(OC[C@@H]6C[C@@H](F)CN6C)nc5c3F)N(C(C)c3cccnc3N)[C@@H](C)CO4)c12 (some centres unmarked) [Compound 290] :: -0.70
10. CC(c1cccnc1N)N1CCOc2nc(-c3cc(N)cc(Cl)c3C3CC3)c(F)c3nc(OC[C@@]45CCCN4C[C@H](F)C5)nc1c23 (some centres unmarked) [Compound 66] :: 0.48
11. [2H]C1([2H])CN(C(C)c2cccnc2N)c2nc(OC[C@@]34CCCN3C[C@H](F)C4)nc3c(F)c(-c4cc(N)c(F)c(C)c4C(F)(F)F)nc(c23)O1 (single isomer, unassigned) [Compound 183] :: 0.00
12. CCC(c1cccnc1N)N1CCOc2nc(-c3cc(N)c(F)c(Cl)c3C(F)(F)F)c(F)c3nc(OC[C@@]45CCCN4C[C@H](F)C5)nc1c23 (single isomer, unassigned) [Compound 214] :: 0.60
13. CC(c1cccnc1N)N1CCOc2nc(-c3cc(O)cc(Cl)c3C3CC3)c(F)c3nc(OC[C@@H]4CCN4CC(F)F)nc1c23 (some centres unmarked) [Compound 16] :: 2.18
14. CC(c1cccnc1N)N1c2nc(OC[C@@]34CCCN3C[C@H](F)C4)nc3c(F)c(-c4c(C5CC5)c(Cl)cc5[nH]ncc45)nc(c23)OC[C@@H]1C (some centres unmarked) [Compound 332] :: -0.52
15. Cc1c(F)c(N)cc(-c2nc3c4c(nc(OC[C@@]56CCCN5C[C@H](F)C6)nc4c2F)N(C(C)c2cccnc2N)[C@@H](C)CO3)c1C(F)(F)F (single isomer, unassigned) [Compound 250] :: -0.40

---

Target: pERK1/2 (Thr202/Tyr204), NCI-1H358 (KRAS G12C) (Homo sapiens, UniProt P01116, G12C)
Construct: pERK1/2 HTRF read-out
Sequence (P01116 1-188 isoform P01116-2 G12C): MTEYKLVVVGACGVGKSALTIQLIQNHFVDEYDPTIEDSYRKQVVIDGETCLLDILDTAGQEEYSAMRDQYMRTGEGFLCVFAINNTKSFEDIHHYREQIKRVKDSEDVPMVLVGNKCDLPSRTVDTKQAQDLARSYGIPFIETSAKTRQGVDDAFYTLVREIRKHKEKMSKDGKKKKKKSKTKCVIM
Assay: Assay of intracellular pERK1/2 (Thr202/Tyr204) phosphorylation in NCI-H358 cells (KRAS G12C)
Type: cell-based
Conditions: pERK1/2, 2 days, read-out: NCI-H358 (KRAS G12C) IC50
measurement.name: IC50 (nM)

1. CC(c1cccnc1N)N1c2nc(OC[C@@]34CCCN3C[C@H](F)C4)nc3c(F)c(-c4cc(N)cc(Cl)c4C4CC4)nc(c23)OC[C@@H]1C (stereo partly shown) [Compound 305] :: 0.3
2. CC(c1cccnc1N)N1c2nc(OC[C@@]34CCCN3C[C@H](F)C4)nc3c(F)c(-c4cc(O)cc5ccc(F)c(F)c45)nc(c23)OC[C@@H]1C (single isomer, unassigned) [Compound 276] :: 77
3. Cc1c(F)c(N)cc(-c2nc3c4c(nc(OC[C@@]56CCCN5C[C@H](F)C6)nc4c2F)N(C(C)c2cc(F)cnc2N)CCO3)c1C(F)(F)F (stereo partly shown) [Compound 177] :: 0.7
4. Cc1c(C(F)(F)F)c(-c2nc3c4c(nc(OC[C@@]56CCCN5C[C@H](F)C6)nc4c2F)N(C(C)c2cc(F)cnc2N)[C@@H](C)CO3)c2cn[nH]c2c1F (stereo partly shown) [Compound 368] :: 0.3
5. CCc1c(F)ccc2cc(O)cc(-c3nc4c5c(nc(OC[C@@]67CCCN6C[C@H](F)C7)nc5c3F)N(C(C)c3cccnc3N)[C@@H](C)CO4)c12 (single isomer, unassigned) [Compound 279] :: 0.3
6. Cc1c(F)c(N)cc(-c2nc3c4c(nc(OC[C@@]56CCCN5C[C@H](F)C6)nc4c2F)N(C(C)c2cccnc2N)CCO3)c1C(F)(F)F (single isomer, unassigned) [Compound 138] :: 13
7. Cc1cc(N)cc(-c2nc3c4c(nc(OC[C@@H]5CCCN5C)nc4c2F)N(C(C)c2cccnc2N)CCO3)c1C(F)(F)F (stereo partly shown) [Compound 65] :: 1
8. CCN1CCC[C@H]1COc1nc2c3c(nc(-c4cc(N)cc(C)c4C(F)(F)F)c(F)c3n1)OCCN2C(C)c1cccnc1N (stereo partly shown) [Compound 114] :: 0.6
9. Cc1c(F)c(N)cc(-c2nc3c4c(nc(OC[C@@]56CCCN5C[C@H](F)C6)nc4c2F)N(C2(c4cccnc4N)CC2)CCO3)c1C(F)(F)F [Compound 187] :: 63
10. CC(c1cccnc1N)N1CCOc2nc(-c3cc(N)cc(Cl)c3C(F)(F)F)c(F)c3nc(OC[C@@]45CCCN4C[C@H](F)C5)nc1c23 (stereo partly shown) [Compound 63] :: 0.4
11. CC(c1cccnc1N)N1CCOc2nc(-c3cc(N)cc(F)c3C(F)(F)F)c(F)c3nc(OC[C@@H]4C[C@@H](F)CN4C)nc1c23 (single isomer, unassigned) [Compound 92] :: 1
12. CSc1nc2c3c(nc(-c4cc(O)cc5ccc(F)c(F)c45)c(F)c3n1)OCCN2C(C)c1cccnc1N (stereo not shown) [Compound 33] :: 193
13. CC(c1cccnc1N)N1c2nc(OC[C@@]34CCCN3C[C@H](F)C4)nc3c(F)c(-c4c(Cl)ccc5[nH]ncc45)nc(c23)OC[C@@H]1C (stereo partly shown) [Compound 321] :: 1
14. Cc1cc(N)cc(-c2nc3c4c(nc(OC[C@@H]5CCCN5C5COC5)nc4c2F)N(C(C)c2cccnc2N)CCO3)c1C(F)(F)F (single isomer, unassigned) [Compound 161] :: 14
15. CC(c1cccnc1N)N1CCOc2nc(-c3cc(N)c(F)c(Cl)c3C(F)(F)F)c(F)c3nc(OCC45CC(F)CN4CC(F)C5)nc1c23 (single isomer, unassigned; diastereomer 1) [Compound 245] :: 0.2
16. Cc1cc(N)cc(-c2nc3c4c(nc(OC[C@@H]5CCCN5C)nc4c2F)N(C(C)c2cccnc2N)CCO3)c1C(F)(F)F (single isomer, unassigned) [Compound 76] :: 0.5
17. CC(c1cccnc1N)N1CCOc2nc(-c3c(C(F)(F)F)ccc4[nH]ncc34)c(F)c3nc(OC[C@@H]4CC(F)(F)CN4C)nc1c23 (stereo partly shown) [Compound 40] :: 18
18. CC(c1cccnc1N)N1CCOc2nc(-c3cc(N)ccc3C(F)(F)F)c(F)c3nc(OC[C@@]45CCCN4C[C@H](F)C5)nc1c23 (single isomer, unassigned) [Compound 54] :: 0.7
19. CC(c1cccnc1N)N1c2nc(OC[C@@]34CCCN3C[C@H](F)C4)nc3c(F)c(-c4c5c(cc6[nH]ncc46)CC=C5F)nc(c23)OC[C@@H]1C (stereo partly shown) [Compound 374] :: 0.6
